Origin of the recorded values: patent US6221914A

- system.tested: Human plasma thrombin (Homo sapiens, UniProt P00734)
- test.summary: Ki determination, human plasma thrombin (H-D-Phe-Pip-Arg-pNA)
- condition.set: 50 mM Tris-HCl, pH 8.3, 100 mM NaCl, 1% BSA; read-out: Experimentally Determined Ki, Thrombin
pKi: −log10 of the molar value.
reported.metric: pKi

INSERT INTO measurements (smiles_code, system_tested, reported_metric, result) VALUES
  ('N=C(N)c1ccc2[nH]c(CC(=O)NCc3ccc(OCCCCOc4ccc(CNC(=O)Cc5nc6cc(C(=N)N)ccc6[nH]5)cc4)cc3)nc2c1', 'Human plasma thrombin (Homo sapiens, UniProt P00734)', 'pKi', '< 4.00'),
  ('N=C(N)c1ccc(S(=O)(=O)NCc2cccc(OCCCCCOc3cccc(CNS(=O)(=O)c4ccc(C(=N)N)cc4)c3)c2)cc1', 'Human plasma thrombin (Homo sapiens, UniProt P00734)', 'pKi', '< 4.00'),
  ('N=C(N)c1ccc(C(=O)NCc2cccc(OCCCCCOc3cccc(CNC(=O)c4ccc(C(=N)N)cc4)c3)c2)cc1', 'Human plasma thrombin (Homo sapiens, UniProt P00734)', 'pKi', 4.68),
  ('N=C(N)c1ccc(C(=O)NCc2ccc(OCCCCCOc3ccc(CNC(=O)c4ccc(C(=N)N)cc4)cc3)cc2)cc1', 'Human plasma thrombin (Homo sapiens, UniProt P00734)', 'pKi', '< 4.00'),
  ('N=C(N)c1ccc2sc(C(=O)NCc3ccc(OCCCOc4ccc(CNC(=O)c5cc6cc(C(=N)N)ccc6s5)cc4)cc3)cc2c1', 'Human plasma thrombin (Homo sapiens, UniProt P00734)', 'pKi', '< 4.00'),
  ('N=C(N)c1ccc(S(=O)(=O)NCc2ccc(OCCCOc3ccc(CNS(=O)(=O)c4ccc(C(=N)N)cc4)cc3)cc2)cc1', 'Human plasma thrombin (Homo sapiens, UniProt P00734)', 'pKi', '< 4.00');

* * *

- system.tested: Human lung tryptase
- test.summary: Ki determination, human lung tryptase (Tosyl-Gly-Pro-Arg-pNA substrate)
- condition.set: 50 mM Tris-HCl pH 8.0, 37° C., 1 nM tryptase, 320 μM GPR-pNA; read-out: Experimentally Determined Ki, Tryptase
Quick reference: Ki of the listed items.
reported.metric: Ki (nM)

INSERT INTO results (smiles_code, reported_metric, measurement_unit, numeric_value) VALUES
  ('N=C(N)c1cccc(S(=O)(=O)NCc2ccc(OCCCCCOc3ccc(CNS(=O)(=O)c4cccc(C(=N)N)c4)cc3)cc2)c1', 'Ki', 'nM', 80),
  ('N=C(N)c1ccc(C(=O)NCc2ccc(OCCCCCCCOc3ccc(CNC(=O)c4ccc(C(=N)N)cc4)cc3)cc2)cc1', 'Ki', 'nM', 1),
  ('N=C(N)c1ccc(S(=O)(=O)NCc2ccc(OCCOc3ccc(CNS(=O)(=O)c4ccc(C(=N)N)cc4)cc3)cc2)cc1', 'Ki', 'nM', 1500),
  ('N=C(N)c1cccc(S(=O)(=O)NCc2ccc(OCCCCOc3ccc(CNS(=O)(=O)c4cccc(C(=N)N)c4)cc3)cc2)c1', 'Ki', 'nM', 30),
  ('N=C(N)c1ccc(C(=O)NCc2ccc(OCCCOc3ccc(CNC(=O)c4ccc(C(=N)N)cc4)cc3)cc2)cc1', 'Ki', 'nM', 0.5),
  ('N=C(N)c1ccc(S(=O)(=O)NCc2ccc(OCCCCCOc3ccc(CNS(=O)(=O)c4ccc(C(=N)N)cc4)cc3)cc2)cc1', 'Ki', 'nM', 250),
  ('N=C(N)c1ccc(C(=O)NCc2ccc(OCCCOc3ccc(CNS(=O)(=O)c4cccc(C(=N)N)c4)cc3)cc2)cc1', 'Ki', 'nM', 3);
